Cited source for all entries: paper PMC4403932

Target: PCAF (Homo sapiens, UniProt Q92831)
Construct: representative BRDs from other structural subfamilies (family I, PCAF); made in house
Sequence (Q92831 723-827 limits assumed): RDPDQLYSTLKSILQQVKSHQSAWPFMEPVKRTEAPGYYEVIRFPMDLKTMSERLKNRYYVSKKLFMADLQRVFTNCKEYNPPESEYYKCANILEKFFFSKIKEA
Assay: Protein stability (thermal) shift assay, PCAF
Assay type: binding
Conditions: compound 10 μM, protein 2 μM; average of triplicate
Give TRUE when the value for ΔTm at 10 µM is at least 0.09 °C. Give FALSE when it is less.

COc1ccc(Br)cc1-c1nc(N)nc2[nH]cnc12 = FALSE

Prompt: Form field: ΔTm at 10 µM at least 0.09 °C? Entry: COc1ccc(-c2nc(N)nc3[nH]cnc23)cc1
Completion: FALSE

Prompt: What about this molecule? COc1ccc(Br)cc1-c1nc(O)nc2[nH]cnc12
Completion: TRUE

Prompt: What about this molecule? Cn1cnc2c(-c3ccc(Oc4ccccc4)cc3)nc(N)nc21
Completion: TRUE

Prompt: What about this molecule? Nc1nc(-c2ccc3c(c2)OCCO3)c2nc[nH]c2n1
Completion: FALSE
